Reference for the values: paper PMC10447463

- experimental details: β-sheet content by ATR-FT-IR
- Type: physicochemical
parameter measured: FTIR ß-sheet content/ % (%)

{"substance": "EIEIQINM [TM95 / (TM75)]", "output unit": "%", "data value": 53.87}
{"substance": "KFKFQFNM [BL6a]", "output unit": "%", "data value": 40.31}
{"substance": "QCKFKFQFNMWQ [CK7]", "output unit": "%", "data value": 47.05}
{"substance": "QCKFKQFFNM [CK11]", "output unit": "%", "data value": 41.84}
{"substance": "KIKIQINMWQ [JG1]", "output unit": "%", "data value": 42.41}
{"substance": "QCKIKQIINMWQ [reference compound]", "output unit": "%", "data value": 39.05}
{"substance": "KIKIQINM [JGB2]", "output unit": "%", "data value": 41}
{"substance": "QCKFKQFFNMWQ [CK10]", "output unit": "%", "data value": 41.78}
{"substance": "EIEIQINMWQ [VH8]", "output unit": "%", "data value": 53.91}
{"substance": "KAKAQANMWQ [JG3]", "output unit": "%", "data value": 42.81}
{"substance": "KIKIQI [JJA4]", "output unit": "%", "data value": 38.6}
{"substance": "CKIKIQINM [MG2]", "output unit": "%", "data value": 42.84}
{"substance": "RGDKIKIQINM [MG8a / CN17]", "output unit": "%", "data value": 45.52}
{"substance": "CKIKIQI [MG3b]", "output unit": "%", "data value": 53}
{"substance": "KFKFQFNMWQ [JG4]", "output unit": "%", "data value": 43.15}
{"substance": "KIKQII [msis21]", "output unit": "%", "data value": 38.67}
{"substance": "KFKFQF [JJA6]", "output unit": "%", "data value": 46}
